Read-out: Vascular cell adhesion molecule 1 (VCAM1), VCAM1 (gene 7412)
TEST PROTOCOL: BSK_CASM3C_VCAM1: BioMAP Diversity Plus: CASM3C Assay for Vascular cell adhesion molecule 1 (VCAM1) Biomarker Activity (AID 2283055);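 further: VCAM-1 protein level quantified by ELISA on the cells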
CONDITION PARAMETERS: primary human coronary artery smooth muscle cells; actives raise or lower the signal
Active and inactive are the calls of the source. How the source made its calls: active means hit-call score of the fitted dose curve at least 0.9, where 1 is the maximum; inactive means score below 0.9.
Select the matching outcome among True (active), False (inactive)

Take a look at these entries with their results.
INSERT INTO measurements (compound, group_label) VALUES
  ('CCO[Si](CCCN=C=O)(OCC)OCC', 'False'),
  ('C/C=C\C/C=C/CCCCCCCCOC(C)=O', 'True'),
  ('CCCCNc1ccc(NCCCC)c2c1C(=O)c1ccccc1C2=O', 'False'),
  ('O=C(Cl)c1cc(C(=O)Cl)cc(C(=O)Cl)c1', 'True'),
  ('C=CCOCC(O)CCl (centres undefined)', 'False'),
  ('CCCCC(CC)COCC1CO1 (centres undefined)', 'False');

Hello, I am checking results. What call was entered for "C=C[Si](OC(C)=O)(OC(C)=O)OC(C)=O" ?
False

Hello, I am checking results. What call was entered for "S=C(NC1CCCCC1)NC1CCCCC1" ?
False

Hello, I am checking results. What call was entered for C#CC1(O)CC[C@H]2[C@@H]3CCC4=CCCC[C@@H]4[C@H]3CC[C@@]21C (some centres undefined) ?
True

====

TEST PROTOCOL: ATG_NRF2_ARE_CIS: Attagene CIS-FACTORIAL HepG2 Assay for human Nuclear Factor Erythroid 2 Related Factor 2 (NFR2) response to Antioxidant Response Elements (ARE) (AID 2282992)
CONDITION PARAMETERS: HepG2 Attagene ARE/NRF2 reporter, transcription factor activity; actives raise or lower the signal
Activity calls are given as the source filed them. How the source made its calls: active means hit-call score of the fitted dose curve at least 0.9, where 1 is the maximum; inactive means score below 0.9.
Select the matching outcome among 1.0 = active, 0.0 = inactive

INSERT INTO results (molecule, group_label) VALUES
  ('C=C(C)c1cccc(C(C)(C)N=C=O)c1', 0.0),
  ('C[C@]12CCC(=O)C=C1CC[C@@H]1[C@@H]2C(=O)C[C@@]2(C)[C@H]1CC[C@]2(O)C(=O)CO', 0.0),
  ('C=C[Si](C)(C)O[Si](C)(C)C=C', 0.0),
  ('CC(=O)Nc1ccc2c(c1)Cc1cc(NC(C)=O)ccc1-2', 0.0),
  ('c1ccc(-c2ccccn2)nc1', 0.0);

Hello, I am checking results. What call was entered for "CCCCCCCCCCC=CC#N" ?
1.0

Hello, I am checking results. What call was entered for "CC(C)c1ccc2c(c1)CC[C@H]1[C@](C)(CN)CCC[C@]21C" ?
0.0

Hello, I am checking results. What call was entered for CC(C)CCCC(C)CC=O (configuration not stated) ?
0.0

Hello, I am checking results. What call was entered for "O=C(C=Cc1ccccc1)OCc1ccccc1" ?
1.0

Hello, I am checking results. What call was entered for C=CC(=O)OCC(Br)CBr (configuration not stated) ?
1.0

Hello, I am checking results. What call was entered for "CC(C)(c1cc(Br)c(OCCO)c(Br)c1)c1cc(Br)c(OCCO)c(Br)c1" ?
1.0

Hello, I am checking results. What call was entered for "CCCCCCCC/C=C\CCCCCCCC(=O)O" ?
1.0

Hello, I am checking results. What call was entered for "CCOCC(=O)O" ?
0.0

Hello, I am checking results. What call was entered for "CCCCCc1ccc(Cl)cc1" ?
1.0

====

SUBJECT OF TEST: rat Peripheral-type Benzodiazepine Receptor (PBR), Tspo (gene 24230)
TEST PROTOCOL: NVS_MP_rPBR: NovaScreen (NVS) Membrane Protein Assay for rat Peripheral-type Benzodiazepine Receptor (PBR) (AID 2283335)
Inconclusive results are not listed. Calls of active or inactive are those of the source. Rule for the calls: active = hit-call score of the fitted dose curve at least 0.9, where 1 is the maximum; inconclusive = response in the unintended direction; inactive = score below 0.9.
Select the matching outcome among active, inactive

INSERT INTO assay_data (given_smiles, group_label) VALUES
  ('O=C(Nc1ccccc1SSc1ccccc1NC(=O)c1ccccc1)c1ccccc1', 'inactive'),
  ('CN(C)c1ccc(C(=N)c2ccc(N(C)C)cc2)cc1', 'active'),
  ('CC(C)c1ccc2c(C(C)C)cc(C(C)C)c(S(=O)(=O)O)c2c1', 'inactive');

Hello, I am checking results. What call was entered for "Cc1ccc(N/N=c2\c(=O)cc/c(=N/Nc3ccc(S(=O)(=O)O)cc3)c2=O)c(C)c1" ?
active

Hello, I am checking results. What call was entered for "O=S(=O)(O)c1ccccc1C=Cc1ccc(-c2ccc(C=Cc3ccccc3S(=O)(=O)O)cc2)cc1" ?
active

====

SUBJECT OF TEST: Nuclear receptor subfamily 1 group I member 2 (Homo sapiens)
TEST PROTOCOL: ATG_PXR_TRANS: Attagene TRANS-FACTORIAL HepG2 Assay for human Pregnane X Receptor (PXR) (AID 2283008)
Records with an inconclusive call do not appear. Active and inactive are the calls of the source. The calls were made as follows: active = hit-call score of the fitted dose curve at least 0.9, where 1 is the maximum; inconclusive = response in the unintended direction; inactive = score below 0.9.
Select the matching outcome among active, inactive

Take a look at these entries with their results.
INSERT INTO assay_data (compound, group_label) VALUES
  ('CCCCNc1ccc(NCCCC)c2c1C(=O)c1ccccc1C2=O', 'inactive'),
  ('COC(=O)c1ccccc1OC', 'inactive'),
  ('Nc1ccc(-c2ccc(F)cc2)cc1', 'inactive'),
  ('Nc1ccc(N=Nc2ccccc2)c(N)n1', 'inactive'),
  ('COC(=O)c1cc(Cl)ccc1[N+](=O)[O-]', 'inactive');

Hello, I am checking results. What call was entered for CC(C)(Oc1ccc(C2CC2(Cl)Cl)cc1)C(=O)O (stereo not drawn) ?
inactive

Hello, I am checking results. What call was entered for "CCCCCCCCC(=O)OCC" ?
inactive

Hello, I am checking results. What call was entered for "O=[N+]([O-])c1ccc(CO)cc1" ?
inactive

Hello, I am checking results. What call was entered for "Nc1cccc(C(F)(F)F)c1" ?
inactive

Hello, I am checking results. What call was entered for "[Cl][Nd]([Cl])[Cl]" ?
inactive

Hello, I am checking results. What call was entered for C=CC(=O)OCC(Br)CBr (stereo not drawn) ?
active

Hello, I am checking results. What call was entered for "CCCCCCCCCCCCCCCC[N+](C)(C)CC" ?
inactive

Hello, I am checking results. What call was entered for "CCCCCCCCCCOC(C)=O" ?
inactive

Hello, I am checking results. What call was entered for c1cc(C(c2ccc(OCC3CO3)cc2)C(c2ccc(OCC3CO3)cc2)c2ccc(OCC3CO3)cc2)ccc1OCC1CO1 (stereo not drawn) ?
inactive

Hello, I am checking results. What call was entered for "CN(C)c1ccc(C(=N)c2ccc(N(C)C)cc2)cc1" ?
inactive

====

SUBJECT OF TEST: Glucocorticoid receptor (Homo sapiens) (UniProt P04150)
Sequence (P04150 whole entry, looked up): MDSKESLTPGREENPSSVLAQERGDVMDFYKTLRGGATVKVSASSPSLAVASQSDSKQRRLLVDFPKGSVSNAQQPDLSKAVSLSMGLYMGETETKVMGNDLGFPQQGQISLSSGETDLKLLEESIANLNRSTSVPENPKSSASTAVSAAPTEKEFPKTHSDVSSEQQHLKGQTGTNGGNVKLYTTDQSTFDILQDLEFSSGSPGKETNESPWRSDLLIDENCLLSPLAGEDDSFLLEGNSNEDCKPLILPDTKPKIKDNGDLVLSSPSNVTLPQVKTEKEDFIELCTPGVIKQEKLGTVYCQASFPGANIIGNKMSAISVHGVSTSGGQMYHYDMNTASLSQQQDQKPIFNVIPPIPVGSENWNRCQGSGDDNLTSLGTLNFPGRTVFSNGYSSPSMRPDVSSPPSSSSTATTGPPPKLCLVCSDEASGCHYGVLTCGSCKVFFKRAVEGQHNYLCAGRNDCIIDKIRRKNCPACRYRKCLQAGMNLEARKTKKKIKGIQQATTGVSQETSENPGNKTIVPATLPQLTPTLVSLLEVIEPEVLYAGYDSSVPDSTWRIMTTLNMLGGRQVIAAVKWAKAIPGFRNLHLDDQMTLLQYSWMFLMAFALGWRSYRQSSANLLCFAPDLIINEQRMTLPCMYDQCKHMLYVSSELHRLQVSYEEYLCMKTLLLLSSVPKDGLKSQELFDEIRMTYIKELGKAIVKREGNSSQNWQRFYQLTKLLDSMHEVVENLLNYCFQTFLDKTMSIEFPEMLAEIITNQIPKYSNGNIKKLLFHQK
TEST PROTOCOL: NVS_NR_hGR: NovaScreen (NVS) Nuclear Receptor Binding Assay for human Glucocorticoid Receptor (GR) (AID 2283363)
Records with an inconclusive call do not appear. Activity calls are given as the source filed them. The calls were made as follows: active = hit-call score of the fitted dose curve at least 0.9, where 1 is the maximum; inconclusive = response in the unintended direction; inactive = score below 0.9.
Select the matching outcome among Y for active, N for inactive

INSERT INTO measurements (given_smiles, group_label) VALUES
  ('Oc1ccc(Cl)cc1Cc1cc(Cl)ccc1O', 'Y'),
  ('CCCCCCCC[N+](C)(CCCCCCCC)CCCCCCCC', 'N'),
  ('O=S(=O)(O)c1ccccc1C=Cc1ccc(-c2ccc(C=Cc3ccccc3S(=O)(=O)O)cc2)cc1', 'Y'),
  ('O=C1CCCC1', 'N'),
  ('CCN(CCC#N)c1ccc(N=Nc2c(Cl)cc([N+](=O)[O-])cc2Cl)cc1', 'Y');

Could you now look at the following compound, please?
Hello, I am checking results. What call was entered for "CCCCCCCCCCCCCOP(=O)(O)O" ?
Y

====

TEST PROTOCOL: CEETOX_H295R_TESTO: CeeTox H295R High-throughput Steroidogenesis Assay for Testosterone (TESTO) (AID 2283457)
CONDITION PARAMETERS: actives raise or lower the signal
Active and inactive are the calls of the source. The calls were made as follows: active = hit-call score of the fitted dose curve at least 0.9, where 1 is the maximum; inactive = score below 0.9.
Select the matching outcome among active, inactive

INSERT INTO results (given_smiles, group_label) VALUES
  ('CCCCNc1ccc(NCCCC)c2c1C(=O)c1ccccc1C2=O', 'inactive'),
  ('COCc1c(C(C)C)nc(C(C)C)c(/C=C/[C@@H](O)C[C@@H](O)CC(=O)O)c1-c1ccc(F)cc1', 'active'),
  ('C=COCCCC', 'inactive');

Hello, I am checking results. What call was entered for "Oc1ccc(Cl)cc1Cc1cc(Cl)ccc1O" ?
inactive

====

SUBJECT OF TEST: Cellular tumor antigen p53 (Homo sapiens) (UniProt P04637)
Sequence (P04637 whole entry, looked up): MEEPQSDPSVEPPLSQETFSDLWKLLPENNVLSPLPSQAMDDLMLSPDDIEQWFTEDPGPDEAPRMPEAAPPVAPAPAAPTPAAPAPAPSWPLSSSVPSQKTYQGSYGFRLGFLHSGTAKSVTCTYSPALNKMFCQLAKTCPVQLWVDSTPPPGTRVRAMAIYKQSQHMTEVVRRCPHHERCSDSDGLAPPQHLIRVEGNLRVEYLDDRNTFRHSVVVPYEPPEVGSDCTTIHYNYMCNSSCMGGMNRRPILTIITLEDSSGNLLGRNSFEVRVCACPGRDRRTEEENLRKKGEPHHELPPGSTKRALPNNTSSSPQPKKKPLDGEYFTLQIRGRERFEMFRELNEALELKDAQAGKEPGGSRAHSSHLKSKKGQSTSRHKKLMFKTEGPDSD
TEST PROTOCOL: TOX21_p53_BLA_p5_ratio: Tox21 HCT-116 p53 Agonism Beta-lactamase Assay, Ratio, Phase 5 (AID 2283599)
Records with an inconclusive call do not appear. Active and inactive are the calls of the source. Rule for the calls: active = hit-call score of the fitted dose curve at least 0.9, where 1 is the maximum; inconclusive = response in the unintended direction; inactive = score below 0.9.
Select the matching outcome among label 1 (active), label 0 (inactive)

INSERT INTO measurements (compound, subject_of_test, group_label) VALUES
  ('COc1cc(C)ccc1C(C)C', 'Cellular tumor antigen p53 (Homo sapiens) (UniProt P04637)', 'label 0'),
  ('CCN(CC#N)c1cccc(C)c1', 'Cellular tumor antigen p53 (Homo sapiens) (UniProt P04637)', 'label 0'),
  ('C=C[C@](C)(O)CC[C@@H]1[C@@]2(C)CCCC(C)(C)[C@@H]2CC[C@@]1(C)O', 'Cellular tumor antigen p53 (Homo sapiens) (UniProt P04637)', 'label 1');

Hello, I am checking results. What call was entered for "Cc1ccc2c(c1)C(=O)c1ccccc1C2=O" ?
label 0

Hello, I am checking results. What call was entered for "C=C[Si](OC(C)=O)(OC(C)=O)OC(C)=O" ?
label 0

Hello, I am checking results. What call was entered for "Cc1cc(C)c(C)c(O)c1" ?
label 0

Hello, I am checking results. What call was entered for "COc1ccc(C(Cl)=C(c2ccc(OC)cc2)c2ccc(OC)cc2)cc1" ?
label 0

Hello, I am checking results. What call was entered for "C=CC(=O)OCCOC(=O)C=C" ?
label 0

These measurements were taken from PubChem BioAssay (EPA / NIEHS).
